Hey, just so you know, these numbers are from paper PMC10812921.

Task for the reader: assign each of the following sequences its reported binding signal.
Biological target: POU1 (OCT1 POU domain) (human, UniProt P14859 260-458)
Sequence (P14859 260-458): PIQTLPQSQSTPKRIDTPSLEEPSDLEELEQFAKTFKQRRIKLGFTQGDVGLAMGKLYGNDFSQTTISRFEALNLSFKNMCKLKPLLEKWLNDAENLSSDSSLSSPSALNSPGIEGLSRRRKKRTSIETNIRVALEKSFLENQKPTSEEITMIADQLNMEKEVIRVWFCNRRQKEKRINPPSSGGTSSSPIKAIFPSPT
Experiment: EMSA-SELEX-seq; no BOB1; 20 mM Tris-HCl pH 7.6, 140 mM NaCl, 10% glycerol, 0.5 mM EDTA, 0.05% Triton X-100, 0.1 mg/mL BSA, 0.1 mg/mL poly(dI-dC), 5 mM DTT, room temperature, 20 min; high values mean tight binding
Conditions: protein: recombinant; dsDNA, one strand shown

QUERY: Please list binding signal recorded for the sequence `AACCGAAA`
RESULT: 0.0271 % of ANNNNAAN 8-mers

QUERY: Please list binding signal recorded for the sequence `AGAGTAAC`
RESULT: 0.0206 % of ANNNNAAN 8-mers

QUERY: Please list binding signal recorded for the sequence `ACGCAAAC`
RESULT: 0.0614 % of ANNNNAAN 8-mers

QUERY: Please list binding signal recorded for the sequence `AGCCTAAC`
RESULT: 0.0153 % of ANNNNAAN 8-mers

QUERY: Please list binding signal recorded for the sequence `ACGCCAAA`
RESULT: 0.0133 % of ANNNNAAN 8-mers

QUERY: Please list binding signal recorded for the sequence `AATAAAAA`
RESULT: 0.137 % of ANNNNAAN 8-mers

QUERY: Please list binding signal recorded for the sequence `ACGGAAAC`
RESULT: 0.0198 % of ANNNNAAN 8-mers

QUERY: Please list binding signal recorded for the sequence `ATATGAAC`
RESULT: 0.0389 % of ANNNNAAN 8-mers

QUERY: Please list binding signal recorded for the sequence `ATCAAAAC`
RESULT: 0.0465 % of ANNNNAAN 8-mers

QUERY: Please list binding signal recorded for the sequence `AAGATAAC`
RESULT: 0.0248 % of ANNNNAAN 8-mers

QUERY: Please list binding signal recorded for the sequence `AGGTTAAA`
RESULT: 0.0545 % of ANNNNAAN 8-mers

QUERY: Please list binding signal recorded for the sequence `AGGGGAAA`
RESULT: 0.101 % of ANNNNAAN 8-mers

QUERY: Please list binding signal recorded for the sequence `ATCTAAAT`
RESULT: 0.172 % of ANNNNAAN 8-mers

QUERY: Please list binding signal recorded for the sequence `ATCGAAAC`
RESULT: 0.0275 % of ANNNNAAN 8-mers

QUERY: Please list binding signal recorded for the sequence `AGGATAAA`
RESULT: 0.0549 % of ANNNNAAN 8-mers

QUERY: Please list binding signal recorded for the sequence `AACAAAAT`
RESULT: 0.119 % of ANNNNAAN 8-mers

QUERY: Please list binding signal recorded for the sequence `AGTTCAAA`
RESULT: 0.0355 % of ANNNNAAN 8-mers

QUERY: Please list binding signal recorded for the sequence `ACTGGAAG`
RESULT: 0.021 % of ANNNNAAN 8-mers

QUERY: Please list binding signal recorded for the sequence `ACAAAAAC`
RESULT: 0.0488 % of ANNNNAAN 8-mers

QUERY: Please list binding signal recorded for the sequence `ACCAAAAC`
RESULT: 0.0168 % of ANNNNAAN 8-mers

QUERY: Please list binding signal recorded for the sequence `AGCGCAAA`
RESULT: 0.0263 % of ANNNNAAN 8-mers

QUERY: Please list binding signal recorded for the sequence `AAGAGAAG`
RESULT: 0.0339 % of ANNNNAAN 8-mers

QUERY: Please list binding signal recorded for the sequence `ATGACAAC`
RESULT: 0.0259 % of ANNNNAAN 8-mers

QUERY: Please list binding signal recorded for the sequence `AAGGCAAA`
RESULT: 0.222 % of ANNNNAAN 8-mers

QUERY: Please list binding signal recorded for the sequence `AGCCGAAG`
RESULT: 0.0168 % of ANNNNAAN 8-mers

QUERY: Please list binding signal recorded for the sequence `AAGAAAAA`
RESULT: 0.0934 % of ANNNNAAN 8-mers

QUERY: Please list binding signal recorded for the sequence `ATAACAAT`
RESULT: 0.0622 % of ANNNNAAN 8-mers

QUERY: Please list binding signal recorded for the sequence `ACGGAAAT`
RESULT: 0.087 % of ANNNNAAN 8-mers

QUERY: Please list binding signal recorded for the sequence `ATGAAAAA`
RESULT: 0.149 % of ANNNNAAN 8-mers
